Measured Percent Effect accompanies every entry in the list below.
- System: Mycobacterium tuberculosis
- TEST_SUMMARY: Cornell - Phenotypic assay to identify agents that inhibit growth of Mycobacterium tuberculosis
- Type: functional
- Design: scale not given: direction of the effect not stated beside the values
- CONDITION_INFO: 10 mM as filed; unlikely as a test dose
Among all 53,000 compounds or so, about 900 (1.7%) showed an effect of 50% or more. This excerpt belongs to a sample that is enriched for strong results.
Enter the number, and then the unit.

Record excerpt, results attached:
{"COMPOUND": "c1ccc(C2CCN(c3cncc(-n4cccn4)n3)CC2)cc1", "Percent Effect": "25.96%"}
{"COMPOUND": "CNC(=O)[C@H]1C[C@@H]2CN(C(=O)c3ccc(C)o3)C[C@@H]2N1S(C)(=O)=O", "Percent Effect": "18.79%"}
{"COMPOUND": "Cc1cc(O)cc(=O)n1CCCC(=O)Nc1n[nH]c2cc(Br)ccc12", "Percent Effect": "104.6%"}

Exam item: Any idea what Percent Effect was measured for `Cc1cc(NC(=O)Cn2ccc(=O)c3ccccc32)[nH]n1` ?
Marked response: -8.025%

Exam item: Any idea what Percent Effect was measured for `Cc1ccc(CN2CCN(CC3CC3)[C@@H]3CS(=O)(=O)C[C@@H]32)cc1C` ?
Marked response: 21.5%

Exam item: Any idea what Percent Effect was measured for `Cc1cc(O)cc(=O)n1CCCC(=O)Nc1n[nH]c2cccc(F)c12` ?
Marked response: 103.9%

Exam item: Any idea what Percent Effect was measured for `C/N=C1\c2cc3cc(OC)ccc3n2CCN1Cc1ccccc1.O=C(O)C(F)(F)F` ?
Marked response: 22.23%

Exam item: Any idea what Percent Effect was measured for `Cn1nc(CN2CCCN(C3CCCC3)CC2)c2c(Cl)cccc21` ?
Marked response: 60.03%

Exam item: Any idea what Percent Effect was measured for CCC(CN1CCOCC1)n1cncc1-c1ccc2c(c1)CCN2CC.Cl (stereo not drawn) ?
Marked response: 11.86%

Exam item: Any idea what Percent Effect was measured for CS(=O)(=O)N1CCCC(c2nc(-c3ccccc3)c[nH]2)C1 (stereo not drawn) ?
Marked response: 4.975%

Exam item: Any idea what Percent Effect was measured for `Cc1ccccc1NC1CCN(C(=O)CCc2ccco2)CC1` ?
Marked response: 50.28%

Exam item: Any idea what Percent Effect was measured for `CC(C)[C@H]1CN(Cc2ccncc2)C[C@@H]1NC(=O)C1(C#N)CCOCC1` ?
Marked response: 8.101%

Exam item: Any idea what Percent Effect was measured for `O=C(CCn1cc(Cl)cn1)N1CCN(CC2CC2)[C@@H]2CS(=O)(=O)C[C@@H]21` ?
Marked response: -27.81%

Exam item: Any idea what Percent Effect was measured for `CS(=O)(=O)CCCC(=O)Nc1cc(-c2cccc(F)c2F)n[nH]1` ?
Marked response: -2.681%

Exam item: Any idea what Percent Effect was measured for `C=C(C)COc1ccccc1C(=O)NCc1nc(C)cc(=O)[nH]1` ?
Marked response: 11.83%

Exam item: Any idea what Percent Effect was measured for `Cc1nonc1NC(=O)CCn1cc(Br)ccc1=O` ?
Marked response: 6.093%

Exam item: Any idea what Percent Effect was measured for `CNC(=O)c1cn2cc(-c3ccccc3Cl)n(CC3CC3)c(=O)c2n1` ?
Marked response: 16.32%

Exam item: Any idea what Percent Effect was measured for `O=S1(=O)C[C@@H]2[C@H](C1)N(Cc1cc(Cl)cc(Cl)c1)CCN2CC1CC1` ?
Marked response: 85.08%

Exam item: Any idea what Percent Effect was measured for c1ccc(C2CCCN(c3cncc(-n4cccn4)n3)CC2)cc1 (stereo not drawn) ?
Marked response: 42.47%

Exam item: Any idea what Percent Effect was measured for COc1ccc(C2SCC(=O)Nc3n[nH]cc32)c(OC)c1OC (stereo not drawn) ?
Marked response: -14.08%
